# Target under test: T1, human TREM2 on the cell surface (human, UniProt Q9NZC2 19-230)
# T1 construct: also called surface TREM2; TREM2 expressed in HEK293-H6 cells
# T1 sequence: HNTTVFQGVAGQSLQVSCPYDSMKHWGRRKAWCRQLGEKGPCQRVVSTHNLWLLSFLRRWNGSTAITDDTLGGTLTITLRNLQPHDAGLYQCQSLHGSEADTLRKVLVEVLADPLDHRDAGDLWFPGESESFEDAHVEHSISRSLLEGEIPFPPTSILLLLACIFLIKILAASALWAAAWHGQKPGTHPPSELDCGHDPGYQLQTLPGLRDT
# Test method notes: cell binding, human macrophages, dose titration
Measured EC50, listed per entry.
Form entry: value (nM) — number only.

Worked cases, answers included:
Binder	EC50 [nM]
CL0020123 (antibody, V domains shown, also called Clone CL0020123) VH: EVQLQQSGAELVRSGASVKLSCTASGFSIEDFYIHWVKQRPEQGLEWIGWIDPENGDSKYAPKFQGKATMTADTSSNTAYLHLSSLTSEDTAVYYCHADHGNYGSTMDYWGQGTSVTVSS VL: DIQMNQSPSSLSASLGDTVTITCHASQHINVWLSWYQQKPGDHPKLLIYKASNLHTGVPSRFSGSGSGTGFTLTISSLQPEDIATYYCQQGQTYPRTFGGGTKLEIK	0.3
CL0020127 (antibody, V domains shown, also called Clone CL0020127) VH: EVQLQQSGPVLVKPGASVKMSCKASGYKFTDYYMNWVKQSHGKSLEWIGTINPYSGGISYNQKFKGKATLTVDKSSSTAYMELNSLTSEASAVYYCTRRNWDGRYAMDYWGQGTSVTVSS VL: DIVMTQSHKFMSTSVGDRVSITCKASQDVSTAVAWYQQKPGQSPKLLIYWASTRHTGVPDRFTGSGSGTDFTLTISNVQSEDLAEYFCQQYSSYPFTFGGGTKLEIK	11

# evaluate next
Q. Output measured EC50 for this item: CL0020195 (antibody, V domains shown, also called Clone CL0020195) VH: EVQLVESGGGLVQPGRSMMLSCSASGFTFSNYHMAWVRQAPTTGLEWVASITTGSGNTYYRHSVKGRFTISRDNAKSTLYLQMDSLRSEDTASYYCARRWYGGYEGYYFDYWGQGVMVTVSS VL: DIQMTQSPSLLSASVGDRVTLSCKAGQNVNNYLAWYQQKLGEAPKLLIYNANILQTGFPSRFSGTGSGTDFTLTISSLQPEDVATYFCQQYNSWTTFGGGTKLELK
A. 1.3
